src = ChEMBL document CHEMBL4419179

# assay.method.text: Cmax in human blood
# Type: ADME, tissue-based
Readings of Cmax for the listed compounds
Write the answer as a number in nM, unit excluded.

Reference set (3 entries):
CC/C(=C(\c1ccccc1)c1ccc(OCCN(C)C)cc1)c1ccccc1 [TAMOXIFEN] = 296
CC[C@H]1OC(=O)[C@H](C)[C@@H](O[C@H]2C[C@@](C)(OC)[C@@H](O)[C@H](C)O2)[C@H](C)[C@@H](O[C@@H]2O[C@H](C)C[C@H](N(C)C)[C@H]2O)[C@](C)(O)C[C@@H](C)C(=O)[C@H](C)[C@@H](O)[C@]1(C)O [ERYTHROMYCIN] = 1120
CN1CCN(C2=Nc3cc(Cl)ccc3Nc3ccccc32)CC1 [CLOZAPINE] = 3490

According to the records, this compound O=C(c1ccc(OCCN2CCCCC2)cc1)c1c(-c2ccc(O)cc2)sc2cc(O)ccc12 [RALOXIFENE] displays Cmax of 3.7
